TESTED_ON: Lats1 (Homo sapiens)
Construct: purchased Carna 01-123
Sequence (O95835 whole entry): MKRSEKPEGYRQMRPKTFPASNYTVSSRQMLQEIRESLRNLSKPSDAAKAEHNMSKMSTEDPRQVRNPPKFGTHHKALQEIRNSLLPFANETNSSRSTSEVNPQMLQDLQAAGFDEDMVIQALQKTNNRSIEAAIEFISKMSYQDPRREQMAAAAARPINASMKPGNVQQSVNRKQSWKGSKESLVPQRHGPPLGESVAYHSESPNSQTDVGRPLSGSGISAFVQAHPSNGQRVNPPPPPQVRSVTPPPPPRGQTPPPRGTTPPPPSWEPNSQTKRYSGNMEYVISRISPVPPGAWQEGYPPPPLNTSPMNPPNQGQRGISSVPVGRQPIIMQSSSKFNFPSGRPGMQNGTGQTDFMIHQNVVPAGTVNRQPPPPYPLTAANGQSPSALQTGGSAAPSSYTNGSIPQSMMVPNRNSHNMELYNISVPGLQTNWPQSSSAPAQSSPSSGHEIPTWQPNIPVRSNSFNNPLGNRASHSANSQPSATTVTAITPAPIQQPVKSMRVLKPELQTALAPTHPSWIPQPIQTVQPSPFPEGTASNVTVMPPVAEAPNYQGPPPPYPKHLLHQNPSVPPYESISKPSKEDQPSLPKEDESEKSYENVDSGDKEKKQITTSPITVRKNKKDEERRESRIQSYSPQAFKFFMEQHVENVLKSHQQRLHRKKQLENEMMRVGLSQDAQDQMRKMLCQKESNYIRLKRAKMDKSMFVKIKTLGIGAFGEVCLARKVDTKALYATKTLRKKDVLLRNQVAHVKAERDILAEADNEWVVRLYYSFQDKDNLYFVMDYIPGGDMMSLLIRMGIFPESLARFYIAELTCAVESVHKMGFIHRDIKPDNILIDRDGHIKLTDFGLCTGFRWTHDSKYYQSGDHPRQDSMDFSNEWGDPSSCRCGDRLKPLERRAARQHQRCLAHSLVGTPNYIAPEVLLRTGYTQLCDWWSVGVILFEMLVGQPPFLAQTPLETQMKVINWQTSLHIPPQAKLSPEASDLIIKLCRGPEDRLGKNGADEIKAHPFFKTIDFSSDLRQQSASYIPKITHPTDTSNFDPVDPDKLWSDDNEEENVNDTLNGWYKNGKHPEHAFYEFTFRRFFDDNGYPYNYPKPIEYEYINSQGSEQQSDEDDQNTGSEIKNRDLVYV
ASSAY_SUMMARY: In vitro kinase assay (HTRF KinEASE-STK S1) Lats1, 2 mM ATP
Assay type: biochemical
CONDITION_CONTEXT: 2 mM ATP; read-out: LATS1_HTRF_2 mM ATP IC50
Mark 1.0 for IC50 under 700 nM, 0.0 if at or over.

Answer whether the compound O=C(/N=c1\sccn1-c1ccc2c(c1)CNCC2)c1c[nH]c2ncccc12 [T62] has IC50 strictly less than 700 nM
1.0

Answer whether the compound O=C(/N=c1\sccn1-c1cccc(Cl)c1)c1c[nH]c2ncccc12 [T66] has IC50 strictly less than 700 nM
1.0

Answer whether the compound NCc1cccc(Cn2ccs/c2=N\C(=O)c2c[nH]c3ncccc23)c1 [T45] has IC50 strictly less than 700 nM
1.0

Answer whether the compound O=C(/N=c1\sccn1-c1ccccc1Cl)c1c[nH]c2ncccc12 [T65] has IC50 strictly less than 700 nM
1.0

Answer whether the compound Cn1cc(Cn2ccs/c2=N\C(=O)c2c[nH]c3ncccc23)cn1 [T59] has IC50 strictly less than 700 nM
0.0

Answer whether the compound O=C(/N=c1\sccn1-c1ccccc1)c1c[nH]c2ncccc12 [T14] has IC50 strictly less than 700 nM
1.0

Answer whether the compound CC(N)CCn1ccs/c1=N\C(=O)c1c[nH]c2ncccc12 (stereo not shown) [T41] has IC50 strictly less than 700 nM
1.0

Answer whether the compound O=C(/N=c1\sccn1CC1CCOCC1)c1c[nH]c2ncccc12 [T56] has IC50 strictly less than 700 nM
0.0

Answer whether the compound Cn1c(Cc2ccccc2)cs/c1=N\C(=O)c1c[nH]c2ncccc12 [T64] has IC50 strictly less than 700 nM
0.0
